In this section we review reported Papp values for a set of compounds.
# TEST DETAILS: Apparent permeability across human Caco-2 cells
# Format: ADME, cell-based
Reply with just the number (in ×10⁻⁶ cm/s).

* CNC(=O)CN(C1CCCN(c2ccc(-n3ccccc3=O)cc2F)C1=O)S(=O)(=O)c1cc2ccc(Cl)nc2s1 (stereo not drawn) | 0.1
* O=C1C(NS(=O)(=O)c2cc3ccc(Cl)nc3s2)CCCN1c1ccc(-n2ccccc2=O)cc1 (stereo not drawn) | 2

Kindly consider the entry below.
Given the compound COC(=O)CN(C1CCCN(c2ccc(-n3ccccc3=O)cc2)C1=O)S(=O)(=O)c1cc2ccc(Cl)nc2s1 (stereo not drawn) , write its reported Papp.
3.5

----------
# TEST DETAILS: Oral bioavailability in dog
# Type: ADME, organism-based, Canis lupus familiaris
# TEST CONDITIONS: in vivo
ATTRIBUTE MEASURED: bioavailability (%)
Reply with just the number (in %).

Given the molecule "CN(C)CCN(C)C(=O)CN([C@H]1CCCN(c2ccc(-n3ccccc3=O)cc2F)C1=O)S(=O)(=O)c1ccc2cc(Cl)ccc2c1" , write its reported bioavailability.
4

----------
# TEST DETAILS: Half life in dog
# Format: ADME, organism-based, Canis lupus familiaris
# TEST CONDITIONS: in vivo
ATTRIBUTE MEASURED: half-life (h)
Reply with just the number (in h).

Given the compound "CN(C)CCN(C)C(=O)CN([C@H]1CCCN(c2ccc(-n3ccccc3=O)cc2F)C1=O)S(=O)(=O)c1ccc2cc(Cl)ccc2c1" , write its reported half-life.
6.45

----------
# TEST DETAILS: Clearance in dog
# Type: ADME, organism-based, Canis lupus familiaris
# TEST CONDITIONS: in vivo
ATTRIBUTE MEASURED: clearance (mL/min/kg)
Reply with just the number (in mL/min/kg).

Given the compound "CN(C)CCN(C)C(=O)CN([C@H]1CCCN(c2ccc(-n3ccccc3=O)cc2F)C1=O)S(=O)(=O)c1ccc2cc(Cl)ccc2c1" , write its reported clearance.
19.8
